STUDY SYSTEM: T1, His-tagged mouse CD38 (ACRO Biosystems #CD8-M5223) (mouse, UniProt P56528 45-304)
T1 construct: bought recombinant protein with His tag; also called Murine
T1 sequence (looked up): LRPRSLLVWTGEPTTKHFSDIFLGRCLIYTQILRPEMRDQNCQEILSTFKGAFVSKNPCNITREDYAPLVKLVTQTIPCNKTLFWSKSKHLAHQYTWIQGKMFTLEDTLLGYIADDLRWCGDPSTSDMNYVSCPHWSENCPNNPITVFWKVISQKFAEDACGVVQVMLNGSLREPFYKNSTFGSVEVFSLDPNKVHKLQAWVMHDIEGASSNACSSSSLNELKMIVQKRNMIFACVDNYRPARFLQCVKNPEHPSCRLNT
EXPERIMENT DESCRIPTION: ELISA, coated His-CD38
REPORTED ENDPOINT: ELISA 1 ug/ml

[[record]]
binder = "40617p1.2.A1 (scFv, V domains shown, tested as scFv-Fc supernatant) VH: EVQLLESGGGLVQPGGSLRLSCAASGFTFSSYWMTWVRQAPGKGLEWVSAISSYGGQYTYYADSVKGRFTISRDNSKDTLYLHMDSLRAEDTAVYYCAKDWDDGMDVWGQGTTVTVSS VL: EIVMTQSPAVLSVSPGERATLSCRASQSVNIKLAWYQQKPGQAPRLLIYGASTRAAGIPDRFSGSGSGTDFTLTISSLQSDDFAVYYCQQYYDLPPYSFGGGTKVEIK"
reported_endpoint = "ELISA 1 ug/ml"
endpoint_value = 1.13

[[record]]
binder = "40617p1.2.H1 (scFv, V domains shown, tested as scFv-Fc supernatant) VH: EVQLLESGGGLVQPGGSLRLSCAASGFTFTNYWMTWVRQAPGKGLEWVSAISSYGGNYMYYADSVKGRFTISRDNSENTLYLQMNSLRAEDTAVYYCAKDWDDGMDVWGQGTTVTVSS VL: EIVMTQSPAVLSVSPGERATLSCRASQTVGSKLAWYQQKPGQAPRLLIYGVSTRAAGIPDRFSGSGSGTDFTLTISSLQSEDFAVYYCQQYYDLPPYSFGGGTKVEIK"
reported_endpoint = "ELISA 1 ug/ml"
endpoint_value = 1.05

[[record]]
binder = "40769p1.2.B10 (scFv, V domains shown, tested as scFv-Fc supernatant) VH: EVQLLESGGGLVQPGGSLRLSCPASGFDFSSYWMTWVRQAPGKGLEWVSTITDSGGRAWYADSVRGRFTISRDNSKNTLYLQMNSLRAEDTAVYYCARDTPKTYYYYAMDVWGQGTTVTV VL: QSALTQPPSASGTPGQRVTISCSGSSSNIQYSYVSWYQQLPGTAPKLLIYNNVQRPSGVPDRFSGSKSGTSASLAISGLQSEDEADYYCATWDESLLGLWVFGGGTKLTVL"
reported_endpoint = "ELISA 1 ug/ml"
endpoint_value = 1.14

[[record]]
binder = "40566p1.A7 (scFv, V domains shown, tested as scFv-Fc supernatant) VH: RELVESGGGVVRPGESLRLSCAASGFTFDNYDMTWVRQAPGEGLEWVSFISSRGTFTYYTDSVRGRFTISRDNSKNTLYLEMNSLRAEDTAIYYCAKDSGEYYFFDYWGLGTLVTVSS VL: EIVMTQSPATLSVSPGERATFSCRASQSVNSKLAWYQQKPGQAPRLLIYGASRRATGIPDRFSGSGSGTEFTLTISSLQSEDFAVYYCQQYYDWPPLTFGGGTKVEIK"
reported_endpoint = "ELISA 1 ug/ml"
endpoint_value = 2.12

